- TESTED TARGET: human PHD2 (Homo sapiens (Human), UniProt Q9GZT9)
- Sequence (Q9GZT9 whole entry): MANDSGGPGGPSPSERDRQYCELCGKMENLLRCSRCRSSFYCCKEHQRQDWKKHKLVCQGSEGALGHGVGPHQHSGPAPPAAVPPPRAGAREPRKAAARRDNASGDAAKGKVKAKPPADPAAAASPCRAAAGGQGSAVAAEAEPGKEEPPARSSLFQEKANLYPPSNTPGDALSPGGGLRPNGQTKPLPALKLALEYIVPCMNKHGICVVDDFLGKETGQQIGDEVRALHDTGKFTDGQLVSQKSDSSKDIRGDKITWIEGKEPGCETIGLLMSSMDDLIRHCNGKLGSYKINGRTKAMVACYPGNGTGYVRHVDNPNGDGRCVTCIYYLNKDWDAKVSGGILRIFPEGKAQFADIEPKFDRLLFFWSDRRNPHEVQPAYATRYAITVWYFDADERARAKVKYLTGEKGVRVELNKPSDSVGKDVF
- PROTOCOL SUMMARY: Test 1: human PHD2 inhibitory activity, [14C]-2-oxoglutarate to [14C]-succinic acid radiometric assay with HIF-1α peptide
- Assay type: biochemical
- CONDITIONS: test compound's concentration 1 μM; Test 1, [14C]-2-oxoglutarate radiometric assay; read-out: Percent inhibition (% at 1 μM)
METRIC: inhibition at 1 µM (%)
Answers are plain numbers, in %.

Reference set (3 entries):
# MOLECULE, NUMBER
records = [
    ("CC1CC(O)=C(C(=O)NCC(=O)O)C(=O)N1Cc1ccc(OC(F)(F)F)cc1 (stereo not shown)", 74),
    ("O=C(O)CNC(=O)C1=C(O)CCN(Cc2ccc(-c3ccc(Cl)cc3)cc2)C1=O", 93),
    ("CC1CC(O)=C(C(=O)NCC(=O)O)C(=O)N1Cc1cnc(-c2ccccc2)s1 (stereo not shown)", 84),
]

For the next question, use this molecule.
Please give the measured inhibition at 1 µM for this molecule: COc1ccc(CN2C(=O)C(C(=O)NCC(=O)O)=C(O)CC2(C)C)cc1Cl
52

====

- TESTED TARGET: human PHD2 (Homo sapiens (Human), UniProt Q9GZT9)
- PROTOCOL SUMMARY: Test 1: human PHD2 inhibitory activity, [14C]-2-oxoglutarate to [14C]-succinic acid radiometric assay with HIF-1α peptide
- Type: biochemical
- CONDITIONS: test compound's concentration 1 μM; Test 1, [14C]-2-oxoglutarate radiometric assay; read-out: Percent inhibition (% at 1 μM)
METRIC: inhibition at 1 µM (%)
One number for each entry, in %.

Reference set (3 entries):
# COMPOUND, UNIT TAG, inhibition at 1 µM
records = [
    ("O=C(O)CNC(=O)C1=C(O)C2(CCCC2)CN(Cc2ccc(-c3ccccc3)cc2)C1=O", "%", 64),
    ("Cc1cc(CN2C(=O)C(C(=O)NCC(=O)O)=C(O)CC2(C)C)ccc1OCCCC(F)(F)F", "%", 47),
    ("O=C(O)CNC(=O)C1=C(O)CCN(Cc2ccc(Oc3cccc(C(F)(F)F)c3)nc2)C1=O", "%", 106),
]

Hey, quick one: what's inhibition at 1 µM for each of these?
1. O=C(O)CNC(=O)C1=C(O)CCN(Cc2ccc(OC3CCC3)cc2)C1=O
2. O=C(O)CNC(=O)C1=C(O)CC(c2ccccc2)N(Cc2ccccc2)C1=O (centres unmarked)
3. O=C(O)CNC(=O)C1=C(O)CCN(Cc2ccc(-c3ccc(O)cc3)cc2)C1=O
4. C=CCOc1ccc(CN2CCC(O)=C(C(=O)NCC(=O)O)C2=O)cc1
5. O=C(O)CNC(=O)C1=C(O)CCN(Cc2cnc(-c3ccccc3)s2)C1=O

1: 88; 2: 55; 3: 103; 4: 77; 5: 87

====

Consider the following compounds; for each one, report its inhibition at 1 µM.
- TESTED TARGET: human PHD2 (Homo sapiens (Human))
- PROTOCOL SUMMARY: Test 2: human PHD2 inhibitory activity, fluorescence polarization assay of HIF-1α peptide proline hydroxylation
- Assay type: biochemical
- CONDITIONS: test compound's concentration 1 μM; Test 2, fluorescence polarization assay; read-out: Percent inhibition (% at 1 μM)
Answers are plain numbers, in %.

# STRUCTURE STRING, TESTED TARGET, UNIT TAG, NUMBER
data = [
    ("Cc1ccc(CN2C(=O)C(C(=O)NCC(=O)O)=C(O)CC23CCC3)cc1", "human PHD2 (Homo sapiens (Human))", "%", 71),
    ("Cc1ccc(OCc2ccc(CN3CCC(O)=C(C(=O)NCC(=O)O)C3=O)cc2)cc1", "human PHD2 (Homo sapiens (Human))", "%", 99),
    ("O=C(O)CNC(=O)C1=C(O)CCN(Cc2ccc(-c3ccc(O)cc3)cc2)C1=O", "human PHD2 (Homo sapiens (Human))", "%", 99),
    ("O=C(O)CNC(=O)C1=C(O)CCN(Cc2ccc(-c3ccc(-c4ccccc4)cc3)cc2)C1=O", "human PHD2 (Homo sapiens (Human))", "%", 79),
]

Hey, quick one: what's inhibition at 1 µM for each of these?
1. CC1(C)CC(O)=C(C(=O)NCC(=O)O)C(=O)N1Cc1cnc(-c2ccccc2)s1
2. COc1cccc(Oc2ccc(CN3CCC(O)=C(C(=O)NCC(=O)O)C3=O)cn2)c1
3. COc1ccc(CN2C(=O)C(C(=O)NCC(=O)O)=C(O)CC2(C)C)cc1OC(F)(F)F
4. COc1cc(-c2ccc(CN3CCC(O)=C(C(=O)NCC(=O)O)C3=O)cc2)ccn1

1: 86; 2: 96; 3: 43; 4: 93
